Entries annotated with measured DC50
# tested-system: B-RAF G466V (Homo sapiens, UniProt P15056, G466V)
# Construct: expressed in transfected cells; host or cells: T-Rex 293 cells (Invitrogen #R71007)
# Sequence (P15056 whole entry G466V): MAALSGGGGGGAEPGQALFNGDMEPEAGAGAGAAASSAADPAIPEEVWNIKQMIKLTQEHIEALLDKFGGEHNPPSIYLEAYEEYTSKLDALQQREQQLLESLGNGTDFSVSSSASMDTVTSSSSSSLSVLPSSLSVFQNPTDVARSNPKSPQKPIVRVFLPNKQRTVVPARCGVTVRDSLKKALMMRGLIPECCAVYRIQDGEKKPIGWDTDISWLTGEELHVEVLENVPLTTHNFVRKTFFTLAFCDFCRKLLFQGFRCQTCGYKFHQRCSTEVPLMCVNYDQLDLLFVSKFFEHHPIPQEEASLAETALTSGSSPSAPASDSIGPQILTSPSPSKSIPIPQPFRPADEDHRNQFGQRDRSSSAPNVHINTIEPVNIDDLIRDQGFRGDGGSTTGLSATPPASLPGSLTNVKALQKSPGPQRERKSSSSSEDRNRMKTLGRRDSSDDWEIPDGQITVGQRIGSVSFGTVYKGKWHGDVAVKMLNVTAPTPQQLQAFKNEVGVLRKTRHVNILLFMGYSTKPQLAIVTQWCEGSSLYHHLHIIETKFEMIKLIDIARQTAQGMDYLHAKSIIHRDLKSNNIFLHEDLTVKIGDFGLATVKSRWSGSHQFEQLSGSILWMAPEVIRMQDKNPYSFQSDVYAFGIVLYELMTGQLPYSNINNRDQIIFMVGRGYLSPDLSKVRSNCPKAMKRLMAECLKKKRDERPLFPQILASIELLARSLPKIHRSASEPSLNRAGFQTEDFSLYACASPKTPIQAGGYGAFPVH
# test-method-notes: Target protein degradation, assay D: T-Rex 293 cells, HA-BRAF_G466V, 384 well format
# Assay type: cell-based
# details: Assay D, T-Rex 293 HA-BRAF_G466V cells, 24 hours, Examples 83-269

The compound listed as N#Cc1c(NS(=O)(=O)N2CC[C@@H](F)C2)ccc(F)c1Oc1ccc2ncn(-c3ccc(N4CCC5(CCN(CC6CCN(c7ccc8c(c7)CN([C@H]7CCC(=O)NC7=O)C8=O)CC6)CC5)CC4)cc3)c(=O)c2c1 [Example 200] has a reported DC50 of 1 to 10 nM

Others:
// field: DC50; key: Cn1c(=O)n(C2CCC(=O)NC2=O)c2cccc(N3CCC(CN4CCN(c5ccc(-n6cnc7ccc(Oc8c(F)ccc(NS(=O)(=O)N9CC[C@@H](F)C9)c8C#N)cc7c6=O)cc5)CC4)CC3)c21 (stereo partly drawn) [Example 98] ; value = 1 to 10 nM

Summary for this compound, N#Cc1c(NS(=O)(=O)N2CC[C@@H](F)C2)ccc(F)c1Oc1ccc2ncn(-c3ccc(N4CCN(CC5CCN(c6cc7c(c(C(F)(F)F)c6)C(=O)N(C6CCC(=O)NC6=O)C7)CC5)CC4)cc3)c(=O)c2c1 (stereo partly drawn) [Example 266] : DC50 is > 30 nM

====

# tested-system: B-RAF V600E (Homo sapiens, UniProt P15056, V600E)
# Construct: expressed in transfected cells; host or cells: T-Rex 293 cells (Invitrogen #R71007)
# Sequence (P15056 whole entry V600E): as the sequence (P15056 whole entry G466V) above, with V466G, V600E counted along it
# test-method-notes: Target protein degradation, assay A: T-Rex 293 cells, HA-B-RAF_V600E, 96 well format
# Format: cell-based
# details: T-Rex 293 HA-B-RAF_V600E cells, 24 hours, Examples 1-82
Here the recorded DC50 is given for each entry.

Answered examples (2):
Entry N#Cc1c(NS(=O)(=O)N2CC[C@@H](F)C2)ccc(F)c1Oc1ccc2ncn(-c3ccc(N4CCN(CC5CN(c6ccc7c(c6)CN(C6CCC(=O)NC6=O)C7=O)C5)CC4)cc3)c(=O)c2c1 (stereo partly drawn) , tested on B-RAF V600E (Homo sapiens, UniProt P15056, V600E), has a reported DC50 of 50 to 500 nM

Kindly note: B-RAF V600E (Homo sapiens, UniProt P15056, V600E), N#Cc1c(NS(=O)(=O)N2CC[C@@H](F)C2)ccc(F)c1Oc1ccc2ncn(-c3ccc(N4CCN(C(=O)CC5(O)CCN(c6ccc(NC7CCC(=O)NC7=O)cc6F)CC5)CC4)nc3)c(=O)c2c1 (stereo partly drawn) , DC50 value reported: 50 to 500 nM

Below: the item to evaluate.
With B-RAF V600E (Homo sapiens, UniProt P15056, V600E) as the test system, N#Cc1c(NS(=O)(=O)N2CC[C@@H](F)C2)ccc(F)c1Oc1ccc2ncn(C3CCN(CC4CCN(c5ccc6c(c5)CN(C5CCC(=O)NC5=O)C6=O)CC4)CC3)c(=O)c2c1 (stereo partly drawn) showed DC50 of > 500 nM

====

# tested-system: B-RAF V600E (Homo sapiens, UniProt P15056, V600E)
# Construct: expressed in transfected cells; host or cells: T-Rex 293 cells (Invitrogen #R71007)
# test-method-notes: Target protein degradation, assay C: T-Rex 293 cells, HA-BRAF_V600E, 384 well format
# Type: cell-based
# details: Assay C, T-Rex 293 HA-BRAF_V600E cells, 24 hours, Examples 83-269
Entries and their measured DC50 follow.

Data point: N#Cc1c(NS(=O)(=O)N2CC[C@@H](F)C2)ccc(F)c1Oc1ccc2ncn(-c3ccc(N4CC(CN5CC(c6ccc7c(c6)CN([C@H]6CCC(=O)NC6=O)C7=O)C5)C4)cc3)c(=O)c2c1 [Example 204] ; DC50 = 50 to 500 nM

Memo: CCN(C)S(=O)(=O)Nc1ccc(F)c(Oc2ccc3ncn(-c4ccc(N5CCN(CC6CCN(c7ccc8c(c7)CN(C7CCC(=O)NC7=O)C8=O)CC6)CC5)cc4)c(=O)c3c2)c1C#N (stereo not drawn) [Example 109] , reported DC50: 50 to 500 nM

Entry under test: C[C@H]1CN(CC2CCN(c3ccc4c(c3F)CN([C@@H]3CCC(=O)NC3=O)C4=O)CC2)CCN1c1ccc(-n2cnc3ccc(Oc4c(F)ccc(NS(=O)(=O)N5CC[C@@H](F)C5)c4C#N)cc3c2=O)nc1 [Example 214] . Its DC50 was > 500 nM

Query N#Cc1c(NS(=O)(=O)N2CC[C@@H](F)C2)ccc(F)c1Oc1ccc2ncn(-c3ccc(N4CCN(CC5CCN(c6cc7c(c(OC(F)(F)F)c6)C(=O)N(C6CCC(=O)NC6=O)C7)CC5)CC4)cc3)c(=O)c2c1 (stereo partly drawn) [Example 265] yields DC50 of 50 to 500 nM

Entry Cc1c(N2CCC(CN3CCN(c4ccc(-n5cnc6ccc(Oc7c(F)ccc(NS(=O)(=O)N8CC[C@@H](F)C8)c7C#N)cc6c5=O)cc4)CC3)CC2)ccc2c1CN(C1CCC(=O)NC1=O)C2=O (single isomer, unassigned) [Example 111] ; DC50 = 50 to 500 nM

Next:
N#Cc1c(NS(=O)(=O)N2CC[C@@H](F)C2)ccc(F)c1Oc1ccc2ncn(-c3ccc(C4CCN(CC5CC6(CCN(c7ccc8c(c7)CN([C@H]7CCC(=O)NC7=O)C8=O)CC6)C5)C4)cc3)c(=O)c2c1 (stereo partly drawn) [Example 263] yielded DC50 of 50 to 500 nM

Briefly, DC50 measured for Cc1cc(N2CCC(CN3CCN(c4ccc(-n5cnc6ccc(Oc7c(F)ccc(NS(=O)(=O)N8CC[C@@H](F)C8)c7C#N)cc6c5=O)cc4)CC3)CC2)c(F)c2c1C(=O)N(C1CCC(=O)NC1=O)C2 (single isomer, unassigned) [Example 121] : 50 to 500 nM

For this compound ( N#Cc1c(NS(=O)(=O)N2CC[C@@H](F)C2)ccc(F)c1Oc1ccc2ncn(-c3ccc(N4CCN(c5cc(N6CCN(c7ccc8c(c7)C(=O)N(C7CCC(=O)NC7=O)C8=O)CC6)ncn5)CC4)nc3)c(=O)c2c1 (stereo partly drawn) [Example 168] ), measured DC50 is 50 to 500 nM

Field DC50 (entry CC(=O)N(CC1CCN(c2ccc(-n3cnc4ccc(Oc5c(F)ccc(NS(=O)(=O)N6CC[C@@H](F)C6)c5C#N)cc4c3=O)cc2)CC1)[C@H]1C[C@@H](Oc2ccc3c(c2)CN([C@H]2CCC(=O)NC2=O)C3=O)C1 [Example 268] ) reads > 500 nM

get_value(item= N#Cc1c(NS(=O)(=O)N2CC[C@@H](F)C2)ccc(F)c1Oc1ccc2ncn(-c3ccc(C4CCC5(CC4)CCN(CC4CCN(c6ccc7c(c6)CN([C@H]6CCC(=O)NC6=O)C7=O)CC4)CC5)cc3)c(=O)c2c1 [Example 226] , readout=DC50) returns 50 to 500 nM

The recorded DC50 for entry Cn1c(=O)n(C2CCC(=O)NC2=O)c2cccc(N3CCC(CN4CCN(c5ccc(-n6cnc7ccc(Oc8c(F)ccc(NS(=O)(=O)N9CC[C@@H](F)C9)c8C#N)cc7c6=O)cc5)CC4)CC3)c21 (stereo partly drawn) [Example 98] equals 50 to 500 nM
